Assay: Pharmacokinetics in dogs (plasma concentration by HPLC)
Assay type: in vivo, dog (beagle)
Conditions: dog, plasma, po, 2 mg/kg/day, Mean of 4 dogs, day 3, 0.5 h; 2 mg/kg/day PO
observedProperty: concentration at 0.5 h (ng/mL)

1. c1cc(Nc2nccc(-c3cccs3)n2)cc(OCCn2ccnc2)c1
2. Cc1cc(Nc2nccc(-c3ccncc3)n2)ccc1N.Cl.Cl [Compound 2, reference compound]
Pick one: 1 or 2 . Which has the bigger concentration at 0.5 h number? Give the label of your selection.
2
(2: 326 ng/mL, 1: 89 ng/mL)

* * *

Experiment: Pharmacokinetics in dogs (plasma concentration by HPLC)
Assay type: in vivo, dog (beagle)
Conditions: dog, plasma, po, 2 mg/kg/day, Dog 3, day 1, 4 h; 2 mg/kg/day PO
observedProperty: concentration at 4 h (ng/mL)
Numeric only. Scale: ng/mL

Name the recorded concentration at 4 h of the molecule listed here: `c1cc(Nc2nccc(-c3cccs3)n2)cc(OCCn2ccnc2)c1`
138
